Test system: HEL
Test: Cytotoxicity against HEL cells assessed as effect on cell growth incubated for 3 days by Coulter counter assay
Format: cell-based
Settings: human, 72 h
Decision: CC50 beneath 200 µM gives Satisfied; CC50 meeting or exceeding 200 µM gives Not satisfied.

compound=CCCCCCCCCCCCCCCCOCCCOP(=O)(CCOCCn1cnc2c(=O)[nH]cnc21)OCCCOCCCCCCCCCCCCCCCC tested_target=HEL label=Satisfied
compound="Nc1nc(O)c2ncn(COC(CO)CO)c2n1 [GANCICLOVIR]" tested_target=HEL label="Not satisfied"
compound="Nc1ccn(C[C@@H](CO)OCP(=O)(O)O)c(=O)n1 [CIDOFOVIR]" tested_target=HEL label="Not satisfied"
compound="O=c1[nH]c(=O)n([C@H]2C[C@H](O)[C@@H](CO)O2)cc1/C=C/Br [BRIVUDINE]" tested_target=HEL label="Not satisfied"
compound=CCCCCCCCCCCCCCCCOCCCOP(=O)(O)CCOCCn1cnc2c(=O)[nH]cnc21 tested_target=HEL label=Satisfied

###

Test system: Human alphaherpesvirus 2
Assay: Antiviral activity against HSV2 G infected in HEL cells by viral CPE assay
Format: functional, organism-based
Details: Human alphaherpesvirus 2, strain G
Recorded measurements of EC50, one per entry
ENDPOINT: EC50 (nM)

compound=CCCCCCCCCCCCCCCCOCCCOP(=O)(O)CO[C@H](CO)Cn1cnc2c(=O)[nH]c(N)nc21 unit_spec=nM relation_qualifier== measured_result=7
compound=CCCCCCCCCCCCCCCCOCCCOP(=O)(O)CCOCCn1cnc2c(=O)[nH]c(N)nc21 unit_spec=nM relation_qualifier== measured_result=1900
compound="CCCCCCCCCCCCCCCCOCCCOP1(=O)CO[C@@H](Cn2cnc3c(=O)[nH]cnc32)CO1 (mixture of isomers)" unit_spec=nM relation_qualifier=> measured_result=7000
compound=Nc1nc2c(ncn2COCCO)c(=O)[nH]1 unit_spec=nM relation_qualifier== measured_result=380
compound=CCCCCCCCCCCCCCCCOCCCOP(=O)(CO[C@H](CO)Cn1cnc2c(=O)[nH]c(N)nc21)OCCCOCCCCCCCCCCCCCCCC unit_spec=nM relation_qualifier== measured_result=23200
compound=CCCCCCCCCCCCCCCCOCCCOP(=O)(CCOCCn1cnc2c(=O)[nH]c(N)nc21)OCCCOCCCCCCCCCCCCCCCC unit_spec=nM relation_qualifier=> measured_result=115000
compound="CCCCCCCCCCCCCCCCOCCCOP1(=O)CO[C@@H](Cn2cnc3c(=O)[nH]c(N)nc32)CO1 (mixture of isomers)" unit_spec=nM relation_qualifier== measured_result=80
compound=CCCCCCCCCCCCCCCCOCCCOP(=O)(CO[C@H](CO)Cn1cnc2c(=O)[nH]cnc21)OCCCOCCCCCCCCCCCCCCCC unit_spec=nM relation_qualifier=> measured_result=115000

###

Assay: Selectivity index, ratio of cytotoxic CC50 for HEL cells to EC50 for HCMV AD169
Recorded Ratio CC50/EC50 for the following molecules
ENDPOINT: Ratio CC50/EC50

molecule=CCCCCCCCCCCCCCCCOCCCOP(=O)(CO[C@H](CO)Cn1cnc2c(=O)[nH]c(N)nc21)OCCCOCCCCCCCCCCCCCCCC measured_result=>9
molecule="CCCCCCCCCCCCCCCCOCCCOP1(=O)CO[C@@H](Cn2cnc3c(=O)[nH]c(N)nc32)CO1 (mixture of isomers)" measured_result=3800
molecule=Nc1nc2c(ncn2C[C@H]2COP(=O)(O)CO2)c(=O)[nH]1 measured_result=11
molecule=CCCCCCCCCCCCCCCCOCCCOP(=O)(O)CCOCCn1cnc2c(=O)[nH]c(N)nc21 measured_result=200
molecule=Nc1nc2c(ncn2C[C@@H](CO)OCP(=O)(O)O)c(=O)[nH]1 measured_result=22
molecule=CCCCCCCCCCCCCCCCOCCCOP(=O)(O)CO[C@H](CO)Cn1cnc2c(=O)[nH]c(N)nc21 measured_result=109
